Molecular target: SAPK2b(h) (Homo sapiens)
Construct: purchased Eurofins (KinaseProfiler platform)
Sequence (Q15759 whole entry): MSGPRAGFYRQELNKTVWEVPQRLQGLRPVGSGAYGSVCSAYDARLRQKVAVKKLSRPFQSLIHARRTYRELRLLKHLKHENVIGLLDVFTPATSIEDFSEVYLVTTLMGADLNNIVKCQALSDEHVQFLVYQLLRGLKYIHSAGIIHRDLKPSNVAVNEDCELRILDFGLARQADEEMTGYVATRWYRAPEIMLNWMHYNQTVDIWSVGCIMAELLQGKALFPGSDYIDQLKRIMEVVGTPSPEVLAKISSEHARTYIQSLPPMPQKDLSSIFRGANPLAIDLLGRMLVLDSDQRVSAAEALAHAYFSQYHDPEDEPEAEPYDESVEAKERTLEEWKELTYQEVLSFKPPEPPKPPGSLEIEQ
Assay: Eurofins KinaseProfiler off-target kinase inhibition
Type: biochemical
Protocol: In order to investigate the specificity of the inhibition of the target by the compound, in this study, the activity and selectivity of test compound 1 on the off-target kinases in related pathways were tested on the Eurofins kinaseProfiler™ platform, and compound screening and analysis were conducted using IC50 value as the indicator. Compound 1 was detected for each selected kinase using the standard Eurofins Kinase Profiler™ protocol, which followed the relevant standard operating procedures. […]
outcome measure: IC50

Problem: Specify measured IC50 for `c1cn2c(n1)c(Nc1ccc(N3CCOCC3)cc1)nc1ccc(-c3cn[nH]c3)cc12` .
Result: > 10000 nM

----------
target: PDGFRα(h) (Homo sapiens); construct: purchased Eurofins (KinaseProfiler service); assay: Eurofins KinaseProfiler off-target kinase inhibition; type: biochemical
Sequence (P16234 24-1089): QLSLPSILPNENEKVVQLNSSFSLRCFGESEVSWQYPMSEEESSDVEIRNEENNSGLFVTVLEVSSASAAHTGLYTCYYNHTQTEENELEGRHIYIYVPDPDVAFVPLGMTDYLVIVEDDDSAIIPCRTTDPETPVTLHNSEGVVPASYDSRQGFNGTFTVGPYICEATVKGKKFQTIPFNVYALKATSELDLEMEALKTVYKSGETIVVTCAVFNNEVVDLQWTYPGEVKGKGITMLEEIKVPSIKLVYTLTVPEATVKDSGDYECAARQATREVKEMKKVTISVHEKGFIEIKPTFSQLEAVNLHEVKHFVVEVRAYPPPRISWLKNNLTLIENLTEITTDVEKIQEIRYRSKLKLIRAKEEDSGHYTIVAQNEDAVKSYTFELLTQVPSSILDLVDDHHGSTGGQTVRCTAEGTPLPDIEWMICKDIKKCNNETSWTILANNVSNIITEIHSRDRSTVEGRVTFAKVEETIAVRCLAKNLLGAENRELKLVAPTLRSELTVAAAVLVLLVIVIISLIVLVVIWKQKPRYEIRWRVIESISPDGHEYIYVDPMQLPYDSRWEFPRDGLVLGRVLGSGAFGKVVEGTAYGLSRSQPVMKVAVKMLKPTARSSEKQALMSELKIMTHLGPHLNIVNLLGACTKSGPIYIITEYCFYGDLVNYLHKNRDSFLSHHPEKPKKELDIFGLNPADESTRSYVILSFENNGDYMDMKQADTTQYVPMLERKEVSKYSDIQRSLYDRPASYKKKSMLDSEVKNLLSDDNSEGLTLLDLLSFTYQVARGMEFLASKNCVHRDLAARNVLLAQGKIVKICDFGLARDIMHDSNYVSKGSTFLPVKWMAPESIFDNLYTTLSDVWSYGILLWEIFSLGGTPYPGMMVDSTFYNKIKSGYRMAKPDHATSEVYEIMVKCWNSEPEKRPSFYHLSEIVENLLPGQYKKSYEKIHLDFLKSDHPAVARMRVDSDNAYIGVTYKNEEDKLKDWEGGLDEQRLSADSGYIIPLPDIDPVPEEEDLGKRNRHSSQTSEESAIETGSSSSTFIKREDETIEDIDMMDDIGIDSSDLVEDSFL
outcome measure: IC50
Quote the value and follow it with the unit of measurement.

Problem: Specify measured IC50 for c1cn2c(n1)c(Nc1ccc(N3CCOCC3)cc1)nc1ccc(-c3cn[nH]c3)cc12 [Compound 1] .
Result: 2700 nM

----------
target: IR(h) (Homo sapiens, UniProt P06213); construct: purchased Eurofins (KinaseProfiler service); assay: Eurofins KinaseProfiler off-target kinase inhibition; type: biochemical
Sequence (P06213 28-1382): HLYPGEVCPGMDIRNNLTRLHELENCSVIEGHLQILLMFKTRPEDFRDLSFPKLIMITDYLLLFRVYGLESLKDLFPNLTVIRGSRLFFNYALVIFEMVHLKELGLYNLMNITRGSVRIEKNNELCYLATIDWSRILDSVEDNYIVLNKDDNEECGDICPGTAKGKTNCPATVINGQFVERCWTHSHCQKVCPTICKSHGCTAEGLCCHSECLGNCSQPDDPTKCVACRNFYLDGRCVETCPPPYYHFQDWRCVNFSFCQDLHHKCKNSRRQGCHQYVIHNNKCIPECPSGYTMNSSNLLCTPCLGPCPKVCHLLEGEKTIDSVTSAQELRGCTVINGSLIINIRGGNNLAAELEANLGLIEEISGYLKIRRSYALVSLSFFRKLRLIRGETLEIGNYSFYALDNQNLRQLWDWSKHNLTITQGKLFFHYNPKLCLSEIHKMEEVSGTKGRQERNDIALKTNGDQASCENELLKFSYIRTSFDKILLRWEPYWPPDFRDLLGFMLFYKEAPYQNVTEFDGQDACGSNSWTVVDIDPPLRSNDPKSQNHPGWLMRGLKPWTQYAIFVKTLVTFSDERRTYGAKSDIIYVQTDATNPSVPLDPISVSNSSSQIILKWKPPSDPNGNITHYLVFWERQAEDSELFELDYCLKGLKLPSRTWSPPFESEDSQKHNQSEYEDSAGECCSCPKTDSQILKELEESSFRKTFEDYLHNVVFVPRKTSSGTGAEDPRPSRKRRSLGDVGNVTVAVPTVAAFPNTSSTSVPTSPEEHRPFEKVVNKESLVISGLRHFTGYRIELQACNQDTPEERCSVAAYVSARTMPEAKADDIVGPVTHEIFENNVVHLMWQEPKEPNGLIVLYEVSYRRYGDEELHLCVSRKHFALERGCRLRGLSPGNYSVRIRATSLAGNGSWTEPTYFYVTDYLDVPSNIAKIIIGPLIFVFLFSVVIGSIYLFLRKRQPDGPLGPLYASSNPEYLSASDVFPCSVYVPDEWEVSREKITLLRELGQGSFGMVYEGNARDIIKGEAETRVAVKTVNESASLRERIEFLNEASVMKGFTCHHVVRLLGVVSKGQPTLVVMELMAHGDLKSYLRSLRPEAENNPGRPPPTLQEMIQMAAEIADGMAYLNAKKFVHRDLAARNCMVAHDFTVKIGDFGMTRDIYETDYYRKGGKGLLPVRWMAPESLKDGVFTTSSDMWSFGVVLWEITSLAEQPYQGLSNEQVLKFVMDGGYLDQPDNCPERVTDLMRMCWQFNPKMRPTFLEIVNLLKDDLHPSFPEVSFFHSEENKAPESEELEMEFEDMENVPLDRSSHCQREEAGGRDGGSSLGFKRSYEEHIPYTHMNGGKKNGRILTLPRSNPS
outcome measure: IC50

Problem: Give IC50 for this entry on IR(h) (Homo sapiens, UniProt P06213): c1cn2c(n1)c(Nc1ccc(N3CCOCC3)cc1)nc1ccc(-c3cn[nH]c3)cc12 [Compound 1]
Result: > 10000 nM

----------
biological target: CDK6/cyclinD3(h) (Homo sapiens, UniProt Q00534); construct: purchased Eurofins (KinaseProfiler platform); experiment: Eurofins KinaseProfiler off-target kinase inhibition; type: biochemical
Sequence (Q00534 whole entry): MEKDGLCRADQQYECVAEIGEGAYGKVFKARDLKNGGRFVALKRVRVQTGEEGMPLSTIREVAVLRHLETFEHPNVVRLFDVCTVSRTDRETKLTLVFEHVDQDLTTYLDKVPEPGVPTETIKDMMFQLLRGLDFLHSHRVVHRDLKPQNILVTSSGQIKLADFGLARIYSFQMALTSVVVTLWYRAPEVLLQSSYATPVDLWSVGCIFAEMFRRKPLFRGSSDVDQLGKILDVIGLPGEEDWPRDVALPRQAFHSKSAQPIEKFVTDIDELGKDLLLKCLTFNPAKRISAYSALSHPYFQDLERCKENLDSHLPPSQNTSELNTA
Sequence (P30281 whole entry partner): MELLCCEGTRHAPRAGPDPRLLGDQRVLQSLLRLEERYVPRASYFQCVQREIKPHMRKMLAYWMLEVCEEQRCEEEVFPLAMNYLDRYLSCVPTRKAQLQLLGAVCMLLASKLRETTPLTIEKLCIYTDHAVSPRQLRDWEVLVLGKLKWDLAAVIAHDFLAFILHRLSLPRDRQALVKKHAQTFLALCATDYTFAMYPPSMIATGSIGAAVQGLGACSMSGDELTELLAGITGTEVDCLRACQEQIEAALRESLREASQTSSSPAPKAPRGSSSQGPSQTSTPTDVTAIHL
outcome measure: IC50

Problem: Specify measured IC50 for c1cn2c(n1)c(Nc1ccc(N3CCOCC3)cc1)nc1ccc(-c3cn[nH]c3)cc12 [Compound 1] .
Result: > 10000 nM

----------
target: Rse(h) (Homo sapiens, UniProt Q06418); construct: purchased Eurofins (KinaseProfiler platform); test: Eurofins KinaseProfiler off-target kinase inhibition; assay type: biochemical
Sequence (Q06418 41-890): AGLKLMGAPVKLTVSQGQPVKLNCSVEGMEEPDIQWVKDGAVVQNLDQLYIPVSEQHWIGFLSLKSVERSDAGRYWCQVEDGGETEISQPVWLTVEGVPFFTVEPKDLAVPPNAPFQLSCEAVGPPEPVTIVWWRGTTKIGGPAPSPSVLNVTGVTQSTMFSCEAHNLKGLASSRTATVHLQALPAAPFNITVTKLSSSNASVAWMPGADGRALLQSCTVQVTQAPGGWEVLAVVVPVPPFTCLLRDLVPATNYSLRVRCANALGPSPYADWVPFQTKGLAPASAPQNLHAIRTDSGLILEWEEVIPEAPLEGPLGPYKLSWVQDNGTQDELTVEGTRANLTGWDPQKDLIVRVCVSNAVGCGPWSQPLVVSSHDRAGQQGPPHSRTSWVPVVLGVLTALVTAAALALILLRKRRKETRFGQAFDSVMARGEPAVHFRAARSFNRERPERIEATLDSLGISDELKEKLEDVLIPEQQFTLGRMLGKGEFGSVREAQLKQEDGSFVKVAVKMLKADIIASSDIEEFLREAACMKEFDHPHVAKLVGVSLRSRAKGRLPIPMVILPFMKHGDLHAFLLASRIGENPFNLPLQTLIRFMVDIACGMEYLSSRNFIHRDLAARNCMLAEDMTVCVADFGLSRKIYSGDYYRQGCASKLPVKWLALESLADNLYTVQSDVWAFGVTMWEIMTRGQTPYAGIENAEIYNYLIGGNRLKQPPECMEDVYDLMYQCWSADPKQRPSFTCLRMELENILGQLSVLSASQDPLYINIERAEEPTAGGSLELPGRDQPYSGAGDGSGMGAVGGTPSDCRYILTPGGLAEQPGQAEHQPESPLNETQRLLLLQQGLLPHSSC
outcome measure: IC50

Problem: Give IC50 for this entry on Rse(h) (Homo sapiens, UniProt Q06418): `c1cn2c(n1)c(Nc1ccc(N3CCOCC3)cc1)nc1ccc(-c3cn[nH]c3)cc12`
Result: > 10000 nM

----------
target: Abl(h) (Homo sapiens, UniProt P00519); construct: purchased Eurofins (KinaseProfiler platform); assay: Eurofins KinaseProfiler off-target kinase inhibition; format: biochemical
outcome measure: IC50 (nM)
The reply should be a number in nM, with the unit left off.

Problem: Specify measured IC50 for `c1cn2c(n1)c(Nc1ccc(N3CCOCC3)cc1)nc1ccc(-c3cn[nH]c3)cc12` .
Result: 152

----------
molecular target: BTK(h) (Homo sapiens, UniProt Q06187); construct: purchased Eurofins (KinaseProfiler platform); assay: Eurofins KinaseProfiler off-target kinase inhibition; type: biochemical
Sequence (Q06187 whole entry): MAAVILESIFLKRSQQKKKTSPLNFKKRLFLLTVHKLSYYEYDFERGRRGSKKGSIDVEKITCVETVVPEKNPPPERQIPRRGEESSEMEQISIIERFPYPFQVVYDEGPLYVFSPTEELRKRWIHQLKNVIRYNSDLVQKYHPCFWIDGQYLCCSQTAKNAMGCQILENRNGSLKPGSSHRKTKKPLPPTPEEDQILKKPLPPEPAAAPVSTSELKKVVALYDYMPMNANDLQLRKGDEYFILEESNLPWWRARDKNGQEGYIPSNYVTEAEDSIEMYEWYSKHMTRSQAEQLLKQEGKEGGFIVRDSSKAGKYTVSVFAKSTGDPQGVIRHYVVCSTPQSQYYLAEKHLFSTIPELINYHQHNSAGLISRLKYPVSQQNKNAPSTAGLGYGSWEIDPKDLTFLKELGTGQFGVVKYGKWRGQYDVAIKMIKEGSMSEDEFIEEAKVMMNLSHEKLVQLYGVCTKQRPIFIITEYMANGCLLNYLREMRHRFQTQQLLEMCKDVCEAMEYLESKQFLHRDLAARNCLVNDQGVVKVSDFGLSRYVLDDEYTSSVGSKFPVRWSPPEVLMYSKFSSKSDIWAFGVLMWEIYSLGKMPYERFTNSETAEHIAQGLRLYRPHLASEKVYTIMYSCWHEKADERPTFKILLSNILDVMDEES
outcome measure: IC50 (nM)
The reply should be a number in nM, with the unit left off.

Problem: Specify measured IC50 for `c1cn2c(n1)c(Nc1ccc(N3CCOCC3)cc1)nc1ccc(-c3cn[nH]c3)cc12` .
Result: 1040
